The following are reported IC50 results, target or system CDK2 (Homo sapiens).

Sample records with IC50:
NS(=O)(=O)c1ccc(Nc2cc(-c3cccc(N4CCOCC4)c3)n[nH]2)cc1; 102 to 20000 nM
Nc1ccc(-c2cc(Nc3ccc(S(N)(=O)=O)cc3)[nH]n2)cc1; 0.102 to 1 nM

Kindly review the next molecule as well.
Task item: Return value of IC50 for input NS(=O)(=O)c1ccc(Nc2cc(-c3cccc(NC(=O)Nc4cc(C(F)(F)F)ccc4F)c3)n[nH]2)cc1 , no commentary.
Reply: 10.2 to 100 nM
